target: β5i of hu i-20S (Homo sapiens (Human), UniProt P20618+P28062); assay: IC50 determination against β5i of human immunoproteasome (Ac-ANW-AMC hydrolysis); format: biochemical; details: β5i, 0.4 nM i-20S, 15 μM Ac-ANW-AMC;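 also: enzyme activity taken as the initial reaction velocity per well, with SDS added to activate the proteasome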
Decide using IC50 alone. Strictly below 50 µM: yes (1). Equal to or above 50 µM: no (0).

# compound, class
records = [
    ("C[C@H]1Cc2cccc(c2)OCCCC[C@@H](C(=O)NC2CCCC2)NC(=O)[C@H](CCN2CCOCC2)NC1=O (single isomer, unassigned)", "no (0)"),
    ("Cn1cc(CNC(=O)[C@@H]2Cc3cccc(c3)Oc3cccc(c3)C[C@H](NS(C)(=O)=O)C(=O)N[C@@H](CCc3ccccc3)C(=O)N2)cn1", "yes (1)"),
    ("O=C1N[C@H](CO)CCCCOc2cccc(c2)C[C@H](N2CCCC2=O)C(=O)N[C@H]1CCc1ccccc1", "no (0)"),
    ("O=C1N[C@@H](CC(=O)N2CCCC2)C(=O)N[C@H](C(=O)NCc2cccc3ccccc23)CCCCCCCCCC1Cc1ccccc1 (stereo in doubt)", "no (0)"),
    ("CN(C)[C@H]1Cc2cccc(c2)OCCCC[C@@H](C(=O)NC2CCCC2)NC(=O)[C@H](CCc2ccc(F)cc2)NC1=O", "no (0)"),
    ("CN1CCN(C(=O)[C@@H]2Cc3cccc(c3)Oc3cccc(c3)C[C@H](NC(=O)c3ccccn3)C(=O)N[C@@H](CCc3ccccc3)C(=O)N2)CC1", "yes (1)"),
    ("O=C1CCc2cccc(c2)OCCCC[C@@H](C(=O)NC2CCCC2)NC(=O)[C@H](CC(=O)N2CCCC2C2CC2)N1 (single isomer, unassigned) [Compound 3-45-B]", "no (0)"),
]
